Biological target: UniProtKB P56817
Sequence (P56817 46-501): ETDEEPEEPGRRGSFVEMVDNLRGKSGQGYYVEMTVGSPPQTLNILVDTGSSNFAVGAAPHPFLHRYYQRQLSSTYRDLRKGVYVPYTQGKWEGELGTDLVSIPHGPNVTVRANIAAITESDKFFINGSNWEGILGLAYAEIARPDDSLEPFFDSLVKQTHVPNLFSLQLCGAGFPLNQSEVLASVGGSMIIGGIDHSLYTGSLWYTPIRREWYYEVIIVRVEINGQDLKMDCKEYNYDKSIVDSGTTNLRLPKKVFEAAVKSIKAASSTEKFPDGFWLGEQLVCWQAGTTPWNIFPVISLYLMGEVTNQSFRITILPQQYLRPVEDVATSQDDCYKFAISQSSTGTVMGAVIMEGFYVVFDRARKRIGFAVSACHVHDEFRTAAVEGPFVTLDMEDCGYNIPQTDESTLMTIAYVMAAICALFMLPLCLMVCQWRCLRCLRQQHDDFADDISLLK
Test: Measurement of Aβ production inhibition in cell (SK-N-BE(2) neuroblastoma cells, Aβ40 ELISA)
Details: Test Example 3 IC50, Aβ40 production, SK-N-BE(2) cells, 6 hours
Binary label based on IC50 with cut-off 1 µM: below gives criterion met, not below gives criterion not met.

>>> discrete_label("CC1(C)Oc2ccc(-c3cccnc3F)cc2C2(COC(N)=N2)C12COC2 (stereo not drawn) [RP 82]")
"criterion met"
>>> discrete_label("COc1ccnc(-c2ccc3c(c2)C2(COC(N)=N2)C2(COC2)C(C)(C)O3)c1 (stereo not drawn) [RP 65]")
"criterion met"
>>> discrete_label("NC1=NC2(CO1)c1cc(-c3cncnc3)ccc1OC(CC1CC1)C21COC1 (stereo not drawn) [RP 207]")
"criterion met"
>>> discrete_label("CC#Cc1cncc(-c2ccc3c(c2)C2(COC(N)=N2)C2(COC2)C(CC)O3)c1 (stereo not drawn) [RP 86]")
"criterion met"
>>> discrete_label("NC1=NC2(CO1)c1cc(Br)ccc1OC(CC1CC1)C21COC1 (single isomer, unassigned) [RP 16b]")
"criterion not met"
>>> discrete_label("CC1(C)Oc2ccc(-c3ccc4[nH]ccc4c3)cc2C2(COC(N)=N2)C12COC2 (stereo not drawn) [RP 174]")
"criterion not met"
>>> discrete_label("NC1=NC2(COC1)c1cc(-c3cncnc3)ccc1OCC21CC1 (stereo not drawn) [RP 215]")
"criterion met"
>>> discrete_label("N#Cc1ncccc1-c1ccc2c(c1)C1(COC(N)=N1)C1(COC1)C1(CCC1)O2 (stereo not drawn) [RP 115]")
"criterion not met"
>>> discrete_label("COc1cccc(-c2ccc3c(c2)C2(COC(N)=N2)C2(COC2)C2(CCC2)O3)c1 (stereo not drawn) [RP 126]")
"criterion not met"
